Conditions: rat, in vivo, Unbound brain-to-plasma concentration ratio, Kp,uu,brain, steady state, Kp,brain/(fu,plasma × Vu,brain)
Readout kind: Kp uu

INSERT INTO results (smiles_data, readout_kind, test_result) VALUES
  ('CC[C@H](C)[C@@H]1NC(=O)[C@@H]2CCCN2C(=O)[C@@H]2CCCN2C(=O)[C@H]([C@@H](C)CC)NC(=O)[C@H](CO)NC(=O)[C@H](CCCCN)NC(=O)[C@H]([C@@H](C)O)NC(=O)[C@@H]2CSSC[C@H](NC1=O)C(=O)N[C@@H](Cc1ccccc1)C(=O)N1CCC[C@H]1C(=O)N[C@@H](CC(=O)O)C(=O)NCC(=O)N[C@@H](CCCNC(=N)N)C(=O)N2', 'Kp uu', 0.13);
